system-under-test: human ACVR2A (human, UniProt P27037 20-135, limits assumed); note: test concentration or dose not given here
Sequence (P27037 20-135 limits assumed): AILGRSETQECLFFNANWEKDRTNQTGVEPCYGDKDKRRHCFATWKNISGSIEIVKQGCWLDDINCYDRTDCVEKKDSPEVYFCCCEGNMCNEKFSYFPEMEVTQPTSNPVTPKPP
method-description: ELISA
Field: optical density. Provide a value for each of the binders that follow.
One number for each entry, in OD.

Examples from the recorded data:
binder	endpoint-result
376_A10 (antibody, V domains shown, VH/VL only) VH: EVQLLESGGGLVQPGGSLRLSCAASGFTFSDYGMNWVRQAPGKGLEWVSNINYNSGYKGYADSVKGRFTISRDNSKNTLYLQMNSLRAEDTAVYYCARSANWHDTALDYWGQGTLVTVSS VL: DIQMTQSPSSLSASVGDRVTITCRASQSILSYLNWYQQKPGKAPKLLIYAATSRASGVPSRFSGSGSGTDFTLTISSLQPEDFATYYCQQSYESPLTFGGGTKVEIK	3.68
373_B08 (antibody, V domains shown, VH/VL only) VH: EVQLLESGGGLVQPGGSLRLSCAASGFTFDSYSMNWVRQAPGKGLEWVANINYNSGYKGYADSVKGRFTISRDNSKNTLYLQMNSLRAEDTAVYYCARSATWHDTHLDYWGQGTLVTVSS VL: DIQMTQSPSSLSASVGDRVTITCRASQSILTYLNWYQQKPGKAPKLVIYAATSLASGVPSRFSGSGSGTDFTLTISSLQPEDFATYYCQQSYENPLTFGGGTKVEIK	3.7

[in] Look at this binder and give its reported optical density. 374_H03 (antibody, V domains shown, VH/VL only) VH: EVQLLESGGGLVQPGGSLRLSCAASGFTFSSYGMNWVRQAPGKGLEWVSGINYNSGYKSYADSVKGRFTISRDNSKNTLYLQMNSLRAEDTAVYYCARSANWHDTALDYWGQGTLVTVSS VL: DIQMTQSPSSLSASVGDRVTITCRASQSILSYVNWYQQKPGKAPKLVIYAATSRASGVPSRFSGSGSGTDFTLTISSLQPEDFATYYCQQSYDSPLTFGGGTKVEIK
[out] 3.27

Reference source: patent US20210380703A1
